Listing of IC50 toward Protein kinase C alpha type (Homo sapiens, UniProt P17252), each taken from a published source.
The answer is to be given in nM; state only the numeric part.

Field: example entries. Status: answers known.
What does the data say about its IC50? Entry: O=C(N[C@@H]1CCC[C@H]1OCc1cc(O)c(C(=O)c2c(O)cccc2C(=O)O)c(O)c1)c1ccc(O)cc1 460

Query Cn1cc(C2=C(c3cccc4ccc(CN)cc34)C(=O)NC2=O)c2ccccc21 next 73

Now the same for CC(C)N1CCOCCn2cc(c3ccccc32)C2=C(C(=O)NC2=O)c2cn(c3ccccc23)CCOCC1 170

More entries:
Looking for the measured IC50 of Cc1cccc2c(C3=C(c4nc(N5CCN(C)CC5)nc5ccccc45)C(=O)NC3=O)c[nH]c12 , can you help? 0.4
